EXPERIMENTAL_SYSTEM: Cannabinoid receptor 1 (Homo sapiens, UniProt P21554)
Sequence (P21554 whole entry): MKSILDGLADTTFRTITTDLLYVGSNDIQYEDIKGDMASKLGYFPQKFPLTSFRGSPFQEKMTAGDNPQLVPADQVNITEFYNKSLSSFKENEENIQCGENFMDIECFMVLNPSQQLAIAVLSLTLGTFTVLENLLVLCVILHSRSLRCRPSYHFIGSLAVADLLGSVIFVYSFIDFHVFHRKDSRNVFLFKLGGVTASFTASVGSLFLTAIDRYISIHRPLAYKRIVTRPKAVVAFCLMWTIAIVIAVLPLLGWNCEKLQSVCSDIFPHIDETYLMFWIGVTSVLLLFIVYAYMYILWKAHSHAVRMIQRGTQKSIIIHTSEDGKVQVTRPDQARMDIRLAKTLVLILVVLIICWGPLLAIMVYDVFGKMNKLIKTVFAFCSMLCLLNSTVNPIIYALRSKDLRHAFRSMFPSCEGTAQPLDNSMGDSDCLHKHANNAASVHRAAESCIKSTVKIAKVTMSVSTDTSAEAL
METHOD_NOTES: Agonist activity at human CB1 receptor
pEC50: −log10 of the molar value.
READOUT: pEC50

Completed entries (count: 5):
CCC(=O)N1CCC(Cn2c(C(C)(C)C)nc3cc(S(=O)(=O)CCCC(F)(F)F)ccc32)CC1 = < 5.00
CCOc1cc(S(=O)(=O)c2ccc3c(c2)nc(C(C)(C)C)n3CC2CCOCC2)ccn1 = 5.89
COCCS(=O)(=O)c1ccc2c(c1)nc(C(C)(C)C)n2CC1CCN(C(C)=O)CC1 = < 5.00
CC(C)(C)c1nc2cc(S(=O)(=O)CC3CC3)ccc2n1CC1CCN(C=O)CC1 = 5.60
COCC(=O)N1CCC(Cn2c(C(C)(C)C)nc3cc(S(=O)(=O)CCCC(F)(F)F)ccc32)CC1 = < 5.00

List reported pEC50 for each of these molecules:
1. CC(=O)N1CCC(Cn2c(C(C)(C)C)nc3cc(S(=O)(=O)CCCC(F)(F)F)ccc32)CC1
2. CC(C)(C)c1nc2cc(S(=O)(=O)CCCC(F)(F)F)ccc2n1CC1CCNCC1
3. COCCCc1cc(S(=O)(=O)c2ccc3c(c2)nc(C(C)(C)C)n3CC2CCOCC2)ccn1
4. CC(C)(C)c1nc2cc(S(=O)(=O)CCCC(F)(F)F)ccc2n1CC1CCN(C(=O)C(F)(F)F)CC1
5. CC(C)(C)c1nc2cc(S(=O)(=O)CCCC(F)(F)F)ccc2n1CC1CCN(C=O)CC1
6. CC(C)(C)c1nc2cc(S(=O)(=O)c3nccs3)ccc2n1CC1CCN(C=O)CC1
7. CCS(=O)(=O)c1ccc2c(c1)nc(C(C)(C)C)n2CC1CCS(=O)(=O)CC1

**A:**
1. < 5.00
2. < 5.00
3. < 5.00
4. < 5.00
5. 5.25
6. 6.49
7. < 5.00

List reported pEC50 for each of these molecules:
1. CC(=O)N1CCC(Cn2c(C(C)(C)C)nc3cc(S(=O)(=O)CCCO)ccc32)CC1
2. CC(=O)N1CCC(Cn2c(C(C)(C)C)nc3cc(S(=O)(=O)c4ccncc4)ccc32)CC1
3. CC(=O)N1CCC(Cn2c(C(C)(C)C)nc3cc(S(=O)(=O)c4ccc(F)cc4)ccc32)CC1
4. CC(=O)N1CCC(Cn2c(C(C)(C)C)nc3cc(S(=O)(=O)C4CCCC4)ccc32)CC1

**A:**
1. < 5.00
2. < 5.00
3. < 5.00
4. < 5.00

List reported pEC50 for each of these molecules:
1. CC(=O)N1CCC(Cn2c(C(C)(C)C)nc3cc(S(=O)(=O)c4nccs4)ccc32)CC1
2. CC(C)(C)c1nc2cc(S(=O)(=O)CCCC(F)(F)F)ccc2n1CC1CCOCC1
3. CC(=O)N1CCC(Cn2c(C(C)(C)C)nc3cc(S(=O)(=O)CC4CC4)ccc32)CC1

**A:**
5.46
6.49
< 5.00

List reported pEC50 for each of these molecules:
1. CC(C)(C)c1nc2cc(S(=O)(=O)CC3CC3)ccc2n1CC1CCS(=O)(=O)CC1
2. CC(=O)NCCCCCc1cc(S(=O)(=O)c2ccc3c(c2)nc(C(C)(C)C)n3CC2CCOCC2)ccn1
3. COC(=O)N1CCC(Cn2c(C(C)(C)C)nc3cc(S(=O)(=O)CCCC(F)(F)F)ccc32)CC1
4. CCS(=O)(=O)c1ccc2c(c1)nc(C(C)(C)C)n2CC1CCN(C(C)=O)CC1
5. CCS(=O)(=O)c1ccc2c(c1)nc(C(C)(C)C)n2CC1CCN(C=O)CC1

**A:**
[5.57, "< 5.00", "< 5.00", "< 5.00", "< 5.00"]

Source of measurements: ChEMBL document CHEMBL1949649
